Tested on: P. aeruginosa expressing IMP-1, efflux+ (MB9798)
Assay type: cell-based, Pseudomonas aeruginosa
Settings: ratio MITC95 PA_9798/MITC95 PA_9799
attribute-measured: Efflux ratio

>>> df
                                   compound  attribute_measured  readout_value
0  Nc1nc2nccc(-c3ccc(S(=O)(=O)C4CNC4)c(S(N)(=O)=O)c3-c3nnn[nH]3)c2[nH]1        Efflux ratio          16.00
1  Nc1nc2ccc(-c3ccc(S(=O)(=O)C4CCNCC4)c(S(N)(=O)=O)c3-c3nn[nH]n3)cc2[nH]1        Efflux ratio           4.00
2  C[C@@H](N)CS(=O)(=O)c1ccc(-c2cccc3sc(N)nc23)c(-c2nn[nH]n2)c1S(N)(=O)=O        Efflux ratio           1.00
3  Cn1c(N)nc2c(-c3ccc(S(=O)(=O)CCCN)c(S(N)(=O)=O)c3-c3nn[nH]n3)cccc21        Efflux ratio           1.00
4  Nc1nc2c(-c3ccc(S(=O)(=O)C4CCNCC4)c(S(N)(=O)=O)c3-c3nn[nH]n3)cccc2[s+]1[O-] (stereo not shown)        Efflux ratio           1.00
5  N=C(N)c1nc2c(-c3ccc(S(=O)(=O)C4CNC4)c(S(N)(=O)=O)c3-c3nnn[nH]3)cccc2s1        Efflux ratio           2.00
6  NCCS(=O)(=O)c1ccc(-c2ccccc2N)c(-c2nn[nH]n2)c1S(N)(=O)=O        Efflux ratio           4.00

* * *

Catalogue of IC50 readings, one per entry.
Target: NDM-1 (Klebsiella pneumoniae, UniProt C7C422)
Sequence (C7C422 whole entry, looked up, species assumed): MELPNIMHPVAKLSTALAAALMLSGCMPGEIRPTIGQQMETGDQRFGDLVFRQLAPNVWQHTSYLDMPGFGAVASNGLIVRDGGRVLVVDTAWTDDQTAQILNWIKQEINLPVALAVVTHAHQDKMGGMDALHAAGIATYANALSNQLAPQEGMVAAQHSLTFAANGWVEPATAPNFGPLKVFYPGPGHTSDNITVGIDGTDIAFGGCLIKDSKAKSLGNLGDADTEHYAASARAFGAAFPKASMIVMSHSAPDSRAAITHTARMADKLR
Experiment: biochemical
Format: biochemical
Settings: CCF2-FA substrate, 2 hours at 25° C; read-out: NDM-1 IC50
attribute-measured: IC50 (nM)

compound	attribute-measured	unit-name	readout-value
NS(=O)(=O)c1c(S(=O)(=O)C2CNC2)ccc(-c2cccc(C3CCC(=O)N3)c2)c1-c1nnn[nH]1.O=C(O)C(F)(F)F (stereo not drawn) [Example 125, 2,2,2-trifluoroacetate]	IC50	nM	4.02
NS(=O)(=O)c1c(S(=O)(=O)C2CNC2)ccc(-c2ccc(NS(=O)(=O)C3CC3)cc2)c1-c1nn[nH]n1 [Example 244]	IC50	nM	0.156
NCCS(=O)(=O)c1ccc(-c2cccc3[nH]c(=O)[nH]c23)c(-c2nnn[nH]2)c1S(N)(=O)=O.O=C(O)C(F)(F)F [Example 150, 2,2,2-trifluoroacetate]	IC50	nM	0.497
NS(=O)(=O)c1c(S(=O)(=O)C2CNC2)ccc(-c2cccn3cncc23)c1-c1nnn[nH]1 [Example 60]	IC50	nM	0.811
NCCS(=O)(=O)c1ccc(-c2cccc3oc(N)nc23)c(-c2nn[nH]n2)c1S(N)(=O)=O [Example 76]	IC50	nM	0.148
C[C@H](N)CS(=O)(=O)c1ccc(-c2cccc3sc(N)nc23)c(-c2nn[nH]n2)c1S(N)(=O)=O [Example 93]	IC50	nM	0.0732

* * *

Catalogue of Efflux ratio readings, one per entry.
System: P. aeruginosa expressing IMP-1, efflux+ (MB9798)
Format: cell-based, Pseudomonas aeruginosa
Details: ratio MITC95 PA_9798/MITC95 PA_9799
attribute-measured: Efflux ratio

>>> df
                                    molecule  readout_value
 0  NCCS(=O)(=O)c1ccc(-c2cccc3c2nc(N)n3CC(F)(F)F)c(-c2nn[nH]n2)c1S(N)(=O)=O           2.00
 1  Cc1ccc2cccc(-c3ccc(S(=O)(=O)C4CNC4)c(S(N)(=O)=O)c3-c3nnn[nH]3)c2n1.O=C(O)C(F)(F)F           4.00
 2  NCCS(=O)(=O)c1ccc(-c2ccc3[nH]c(=O)oc3c2)c(-c2nnn[nH]2)c1S(N)(=O)=O.O=C(O)C(F)(F)F           4.00
 3  CS(=O)(=O)c1ccc(-c2cccc3sc(N)nc23)c(-c2nn[nH]n2)c1S(N)(=O)=O           1.00
 4  Nc1nc2cccc(-c3ccc(S(=O)(=O)[C@@H]4CCNC4)c(S(N)(=O)=O)c3-c3nn[nH]n3)c2[nH]1           1.00
 5  NS(=O)(=O)c1c(S(=O)(=O)C2CNC2)ccc(-c2ccc3scnc3c2)c1-c1nnn[nH]1.O=C(O)C(F)(F)F           8.00
 6  Cn1c(N)nc2c(-c3ccc(S(=O)(=O)C4CNC4)c(S(N)(=O)=O)c3-c3nn[nH]n3)cccc21           2.00
 7  NCCS(=O)(=O)c1ccc(-c2ccnc3nc(N)[nH]c23)c(-c2nnn[nH]2)c1S(N)(=O)=O          32.00
 8  NCCS(=O)(=O)c1ccc(-c2cncc(CO)c2)c(-c2nnn[nH]2)c1S(N)(=O)=O.O=C(O)C(F)(F)F           8.00
 9  Cc1ccc(-c2ccc(S(=O)(=O)[C@H]3CCNC3)c(S(N)(=O)=O)c2-c2nn[nH]n2)c2nc(N)sc12           2.00
10  Nc1nc2cc(-c3ccc(S(=O)(=O)C4CNC4)c(S(N)(=O)=O)c3-c3nn[nH]n3)ccc2o1           4.00
11  NCCS(=O)(=O)c1ccc(-c2ccc3[nH]nc(C(F)(F)F)c3c2)c(-c2nnn[nH]2)c1S(N)(=O)=O.O=C(O)C(F)(F)F         127.99
12  NS(=O)(=O)c1c(S(=O)(=O)C2CNC2)ccc(-c2ccc(O)nc2)c1-c1nnn[nH]1.O=C(O)C(F)(F)F           8.00
13  Nc1nc2ccc(-c3ccc([S+]([O-])C4CCNCC4)c(S(N)(=O)=O)c3-c3nn[nH]n3)cc2[nH]1 (centres unmarked)           8.00

* * *

Molecular target: NDM-1 (Klebsiella pneumoniae)
Experiment: biochemical
Format: biochemical
Details: CCF2-FA substrate, 2 hours at 25° C; read-out: NDM-1 IC50
Catalogue of log10 of IC50 readings, one per entry.
attribute-measured: log10 of IC50 (log10 of the value in nM)

compound	log10 of IC50
CS(=O)(=O)N1CC(S(=O)(=O)c2ccc(-c3cccc4[nH]c(N)nc34)c(-c3nn[nH]n3)c2S(N)(=O)=O)C1 [Example 55]	-1.09
NS(=O)(=O)c1c([S+]([O-])C2CNC2)ccc(-c2cnc3ccccn23)c1-c1nn[nH]n1 (stereo not drawn) [Example 8]	0.42
Nc1ccc(-c2ccc([S+]([O-])C3CCNCC3)c(S(N)(=O)=O)c2-c2nn[nH]n2)cn1 (stereo not drawn) [Example 10]	0.51
NS(=O)(=O)c1c(S(=O)(=O)C2CNC2)ccc([C@H]2CC[C@H](N)CC2)c1-c1nnn[nH]1 [Example 212]	1.05
NCCS(=O)(=O)c1ccc(-c2cccc3sc(C(N)=O)nc23)c(-c2nn[nH]n2)c1S(N)(=O)=O [Example 89]	-0.56
NC(=O)N1CCC(S(=O)(=O)c2ccc(-c3cccc4nc(N)[nH]c34)c(-c3nn[nH]n3)c2S(N)(=O)=O)CC1 [Example 49]	-0.56
NCCS(=O)(=O)c1ccc(-c2cnc(N)c(C(=O)N[C@H]3CCNC3)c2)c(-c2nn[nH]n2)c1S(N)(=O)=O [Example 336]	0.80
Nc1c(NCCO)cccc1-c1ccc(S(=O)(=O)C2CNC2)c(S(N)(=O)=O)c1-c1nn[nH]n1 [Example 374]	0.15
CS(=O)(=O)Nc1nc2c(-c3ccc(S(=O)(=O)CCN)c(S(N)(=O)=O)c3-c3nn[nH]n3)cccc2s1 [Example 83]	-0.93
NCCS(=O)(=O)c1ccc(-c2ccc3oc(N)nc3c2)c(-c2nn[nH]n2)c1S(N)(=O)=O [Example 77]	0.02
NCCS(=O)(=O)c1ccc(-c2cnc3[nH]ccc3c2)c(-c2nnn[nH]2)c1S(N)(=O)=O.O=C(O)C(F)(F)F [Example 149, 2,2,2-trifluoroacetate]	-0.27
NCCS(=O)(=O)c1ccc(-c2cccc3nc(N)oc23)c(-c2nn[nH]n2)c1S(N)(=O)=O [Example 74]	-1.02
NC[C@@H](O)CS(=O)(=O)c1ccc(-c2cccc3[nH]cnc23)c(-c2nn[nH]n2)c1S(N)(=O)=O [Example 361]	-1.04
NCCS(=O)(=O)c1ccc(-c2cccc3nc(C(=O)O)nn23)c(-c2nnn[nH]2)c1S(N)(=O)=O [Example 304]	-0.67
NC(=O)N1CC(S(=O)(=O)c2ccc(-c3cccc4[nH]c(N)nc34)c(-c3nn[nH]n3)c2S(N)(=O)=O)C1 [Example 56]	-0.74
Nc1nc2c(-c3ccc(S(=O)(=O)[C@H]4CCNC4)c(S(N)(=O)=O)c3-c3nn[nH]n3)cccc2o1 [Example 190]	-0.95
NS(=O)(=O)c1c(S(=O)(=O)[C@H]2CCNC2)ccc(-c2cccc3cn[nH]c23)c1-c1nn[nH]n1 [Example 186]	-0.61
Cc1cc(-c2ccc(S(=O)(=O)CCN)c(S(N)(=O)=O)c2-c2nnn[nH]2)cnc1N.O=C(O)C(F)(F)F [Example 172, 2,2,2-trifluoroacetate]	0.47
NCCNC(=O)c1cccc(-c2ccc(S(=O)(=O)C3CNC3)c(S(N)(=O)=O)c2-c2nn[nH]n2)c1N [Example 288]	0.22
NS(=O)(=O)c1c(S(=O)(=O)C2CCNCC2)ccc(-c2ccc(C3CCNCC3)cc2)c1-c1nnn[nH]1 [Example 228]	-0.01
C[C@H](N)CS(=O)(=O)c1ccc(-c2cccc3[nH]c(C(=O)O)nc23)c(-c2nn[nH]n2)c1S(N)(=O)=O [Example 294]	-1.08
Nc1nc2cccc(-c3ccc(S(=O)(=O)C4CCN(CCO)CC4)c(S(N)(=O)=O)c3-c3nn[nH]n3)c2[nH]1 [Example 47]	-0.67
NCCS(=O)(=O)c1ccc(-c2cccc(-c3c[nH]c(N)n3)c2)c(-c2nnn[nH]2)c1S(N)(=O)=O [Example 346]	-0.29
NS(=O)(=O)c1c(S(=O)(=O)C2CNC2)ccc(-c2cccc3nccn23)c1-c1nnn[nH]1 [Example 66]	-0.23
NCCS(=O)(=O)c1ccc(-c2ccc3[nH]nc(C(F)(F)F)c3c2)c(-c2nnn[nH]2)c1S(N)(=O)=O.O=C(O)C(F)(F)F [Example 163, 2,2,2-trifluoroacetate]	-0.01
NS(=O)(=O)c1c(S(=O)(=O)C2CNC2)ccc(-c2cccn3cc(C(=O)O)nc23)c1-c1nnn[nH]1 [Example 61]	-0.60
Cn1c(N)nc2cccc(-c3ccc(S(=O)(=O)C4CNC4)c(S(N)(=O)=O)c3-c3nn[nH]n3)c21 [Example 19]	-0.97
